experiment: Characterisation of prodrug LNP: particle size, PdI, prodrug entrapment; format: physicochemical; settings: Table 2, prodrug LNP
quantity-kind: Size

compound	result
C=C1/C(=C\C=C2/CCC[C@]3(C)[C@@H]([C@H](C)CCCC(C)(C)O)CC[C@@H]23)C[C@@H](OC(=O)CCCCCCC/C=C\C[C@@H](CCCCCC)OC(=O)CCCCCCC/C=C\C/C=C\CCCCC)C[C@@H]1OC(=O)CCCCCCC/C=C\C[C@@H](CCCCCC)OC(=O)CCCCCCC/C=C\C/C=C\CCCCC [Prodrug D087]	40 nm
